Quick reference for Kd among some binders
target: T1, biotinylated Aβ1-40 peptide (biotinylated (N-biotinylated in Example 7)); assay: SPR, Fab over Aβ1-40 on SA chip; KD=koff/kon
T1 construct: captured on streptavidin (SA) chip; also called Biotinylated Aβ peptide 1-40; Aβ1-40 on SA chip
T1 sequence (peptide, as listed by the source): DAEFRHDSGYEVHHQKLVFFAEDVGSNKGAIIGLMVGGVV
Quick note: give the figure in nM, leave out the unit.

Example results:
Binder	Unit string	Kd
9TL variant W5 Fab (Fab, V domains shown, Fab; human IgG2 CH1 and kappa CL) VH: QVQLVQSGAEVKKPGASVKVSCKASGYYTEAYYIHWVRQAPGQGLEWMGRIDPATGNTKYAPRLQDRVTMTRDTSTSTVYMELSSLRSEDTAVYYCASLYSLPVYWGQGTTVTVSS VL: DVVMTQSPLSLPVTLGQPASISCKSSQSLLHSDAATYLNWFQQRPGQSPRRLIYQISRLDPGVPDRFSGSGSGTDFTLKISRVEAEDVGVYYCLQGTHYPVTFGQGTRLEIKR	nM	12.6
9TL variant M47 Fab (Fab, V domains shown, Fab; human IgG2 CH1 and kappa CL) VH: QVQLVQSGAEVKKPGASVKVSCKASGYYTEAYYIHWVRQAPGQGLEWMGRIDPATGNTKYAPRLQDRVTMTRDTSTSTVYMELSSLRSEDTAVYYCASLYSLPQYWGQGTTVTVSS VL: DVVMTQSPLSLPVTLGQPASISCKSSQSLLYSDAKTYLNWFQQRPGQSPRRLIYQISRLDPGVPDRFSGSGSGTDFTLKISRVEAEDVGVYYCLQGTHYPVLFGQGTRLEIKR	nM	62.9

Request: Kd lookup needed for 9TL variant M55 Fab (Fab, V domains shown, Fab; human IgG2 CH1 and kappa CL) VH: QVQLVQSGAEVKKPGASVKVSCKASGYYTEAYYIHWVRQAPGQGLEWMGRIDPATGNTKYAPRLQDRVTMTRDTSTSTVYMELSSLRSEDTAVYYCASLYSLPVIWGQGTTVTVSS VL: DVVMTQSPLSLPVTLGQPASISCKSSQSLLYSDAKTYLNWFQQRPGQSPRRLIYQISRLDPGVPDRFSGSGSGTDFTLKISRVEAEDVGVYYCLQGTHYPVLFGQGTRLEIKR , thanks.
Response: 9.43

Request: Kd lookup needed for 9TL variant M22 Fab (Fab, V domains shown, Fab; human IgG2 CH1 and kappa CL) VH: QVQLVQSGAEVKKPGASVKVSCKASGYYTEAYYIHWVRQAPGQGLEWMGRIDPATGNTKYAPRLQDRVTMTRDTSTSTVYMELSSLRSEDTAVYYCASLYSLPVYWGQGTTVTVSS VL: DVVMTQSPLSLPVTLGQPASISCKSSQSLLYSDAKTYLNWFQQRPGQSPRRLIYQISRLDPGVPDRFSGSGSGTDFTLKISRVEAEDVGVYYCLQGTHYPLLFGQGTRLEIKR , thanks.
Response: 12.6

Request: Kd lookup needed for 9TL variant M11 Fab (Fab, V domains shown, Fab; human IgG2 CH1 and kappa CL) VH: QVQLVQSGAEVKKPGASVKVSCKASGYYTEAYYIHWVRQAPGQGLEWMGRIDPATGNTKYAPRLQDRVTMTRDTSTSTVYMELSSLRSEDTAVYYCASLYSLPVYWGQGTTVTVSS VL: DVVMTQSPLSLPVTLGQPASISCKSSQSLLYSDAKTYLNWFQQRPGQSPRRLIYQISRLDPGVPDRFSGSGSGTDFTLKISRVEAEDVGVYYCLQSTHYPVLFGQGTRLEIKR , thanks.
Response: 6.29
